# test-method-notes: collision cross section (TIMS, N2 drift gas) of the primary ion; higher = larger gas-phase ion size
# measurement-parameters: ionization mode: ESI+; ion species: [M]+
endpoint: collision cross section (Å²)
The reply should be a number in Å², with the unit left off.

Use these answered entries as a reference point.
CC[N+](CC)(CC)CC : 123.33
CCCCCCCCCCCCCC(=O)NCCC[N+](C)(C)CCCS(=O)(=O)O : 217.87

Consider the record given below.
Output collision cross section of "C[P+](c1ccccc1)(c1ccccc1)c1ccccc1"
162.96

====

# test-method-notes: collision cross section (TIMS, N2 drift gas) of the primary ion; higher = larger gas-phase ion size
# measurement-parameters: ionization mode: ESI+; ion species: [M+H]+
Listed next: entries and their corresponding collision cross section.
The reply should be a number in Å², with the unit left off.

O=C(CCc1ccc(O)cc1)c1c(O)cc(O)cc1O : 163.11
N[C@@H](Cc1cc(I)c(Oc2cc(I)c(O)c(I)c2)c(I)c1)C(=O)O : 217.22
CCN(CC)CC#CCOC(=O)C(O)(c1ccccc1)C1CCCCC1 (stereo not given) : 187.9

Output collision cross section of COC(=O)C(c1ccccc1Cl)N1CCc2sccc2C1 (stereo not given)
170.12

Output collision cross section of "Clc1ccc2c(c1)CCc1cccnc1C2=C1CCNCC1"
176.94

====

# test-method-notes: collision cross section (TIMS, N2 drift gas) of the primary ion; higher = larger gas-phase ion size
# measurement-parameters: ionization mode: ESI+; ion species: [M+H]+
Listed next: entries and their corresponding collision cross section.
The reply should be a number in Å², with the unit left off.

CN(C)C(=O)C(CCN1CCC(O)(c2ccc(Cl)cc2)CC1)(c1ccccc1)c1ccccc1 [Loperamide] : 221.69
O=C(Nc1ccccc1)NC1CCCCC1 [1-Cyclohexyl-3-phenylurea] : 154.52
CCN(CCCCOC(=O)c1ccc(OC)c(OC)c1)C(C)Cc1ccc(OC)cc1 (stereo not drawn) [Mebeverine] : 202.99
CCNc1nc(NCC)[nH]c(=O)n1 [Simazine 2-Hydroxy] : 140.79
COP(=O)(OC)OC=C(Cl)Cl [Dichlorvos] : 139.26

Output collision cross section of CC(C)(C)c1cc(-n2nc3ccccc3n2)c(O)c(C(C)(C)C)c1 [UV-320]
188.24

Output collision cross section of c1ccc2c(c1)[nH]c1ccncc12 [5-Carboline]
132.8

Output collision cross section of O=C(NC(=O)c1c(F)cccc1F)Nc1ccc(Oc2ccc(C(F)(F)F)cc2Cl)cc1F [Flufenoxuron]
204.54

====

# test-method-notes: reversed-phase LC retention time (C18, 15 min MeOH gradient); higher = more hydrophobic / later elution
# measurement-parameters: ionization mode: ESI+; ion species: [M+H]+
Label T for high-side reversed-phase LC retention time (at or above 10 min) and F for low-side reversed-phase LC retention time (below it).

# example entries with known answers
Nc1ccccc1-c1ccccc1 [2-Aminobiphenyl] : T
CCOC(=O)C1=C(C)NC(C)=C(C(=O)OC)C1c1cccc([N+](=O)[O-])c1 (configuration not stated) [Nitrendipin] : T

Dear colleague, could you confirm whether CC(=NC#N)N(C)Cc1ccc(Cl)nc1 [Acetamiprid] has reversed-phase LC retention time at or above 10 min?
F

Dear colleague, could you confirm whether CC(C(=O)O)c1cccc(C(=O)c2ccccc2)c1 (configuration not stated) [Ketoprofen] has reversed-phase LC retention time at or above 10 min?
T

Dear colleague, could you confirm whether CC(C)OC(=O)CCCCCCCCC(=O)OC(C)C [Diisopropyl sebacate] has reversed-phase LC retention time at or above 10 min?
T

Dear colleague, could you confirm whether CC(C)CCCCCCOC(=O)C1CCCCC1C(=O)OCCCCCCC(C)C (configuration not stated) [DINCH] has reversed-phase LC retention time at or above 10 min?
T

Dear colleague, could you confirm whether CCCCc1oc2ccccc2c1C(=O)c1cc(I)c(OCCN(CC)CC)c(I)c1 [Amiodarone] has reversed-phase LC retention time at or above 10 min?
T

Dear colleague, could you confirm whether COc1cc(C2c3cc4c(cc3C(OC3OC5COC(C)OC5C(O)C3O)C3COC(=O)C23)OCO4)cc(OC)c1O (configuration not stated) [Etoposide] has reversed-phase LC retention time at or above 10 min?
T

Dear colleague, could you confirm whether c1ccc2sc(N3CCOCC3)nc2c1 [2(4-morpholinyl)benzothiazole] has reversed-phase LC retention time at or above 10 min?
T

Dear colleague, could you confirm whether CN1COCN(Cc2cnc(Cl)s2)/C1=N/[N+](=O)[O-] [Thiamethoxam] has reversed-phase LC retention time at or above 10 min?
F

Dear colleague, could you confirm whether COc1cc(Cc2cnc(N)nc2N)cc(OC)c1OC [Trimethoprim] has reversed-phase LC retention time at or above 10 min?
F

Dear colleague, could you confirm whether C[C@H]1C[C@@H]2[C@H]([C@@H](O)C[C@@]3(C)[C@H]2CC[C@]3(O)C(=O)CO)[C@@]2(C)C=CC(=O)C=C12 [6alpha-Methylprednisolone] has reversed-phase LC retention time at or above 10 min?
T

Dear colleague, could you confirm whether CC(C)NCC(O)COc1cccc2[nH]ccc12 (configuration not stated) [Pindolol] has reversed-phase LC retention time at or above 10 min?
F

Dear colleague, could you confirm whether CC(C)(O)c1ccccc1CCC(SCC1(CC(=O)O)CC1)c1cccc(C=Cc2ccc3ccc(Cl)cc3n2)c1 (configuration not stated) [Montelukast] has reversed-phase LC retention time at or above 10 min?
T

Dear colleague, could you confirm whether CNC(=O)c1cc(Cl)cc(C)c1NC(=O)c1cc(Br)nn1-c1ncccc1Cl [Chlorantraniliprole] has reversed-phase LC retention time at or above 10 min?
T

Dear colleague, could you confirm whether CC(C)COP(=O)(OCC(C)C)OCC(C)C [Tri-isobutylphosphate] has reversed-phase LC retention time at or above 10 min?
T

Dear colleague, could you confirm whether CCC(=O)O[C@]1(C(=O)SCF)[C@H](C)C[C@H]2[C@@H]3C[C@H](F)C4=CC(=O)C=C[C@]4(C)[C@@]3(F)[C@@H](O)C[C@@]21C [Fluticasone propionate] has reversed-phase LC retention time at or above 10 min?
T

Dear colleague, could you confirm whether COc1cc(C)c(C(=O)c2c(OC)ccc(Br)c2C)c(OC)c1OC [Metrafenone] has reversed-phase LC retention time at or above 10 min?
T

====

# test-method-notes: reversed-phase LC retention time (C18, 15 min MeOH gradient); higher = more hydrophobic / later elution
# measurement-parameters: ionization mode: ESI+; ion species: [M+H]+
endpoint: reversed-phase LC retention time (min)
The reply should be a number in min, with the unit left off.

Use these answered entries as a reference point.
CCC(Cc1ccccc1)(C(=O)c1ccc(N2CCOCC2)cc1)N(C)C (configuration not stated) [Irgacure 369] : 11.3
Cc1cccc(C)c1N [2,6-Xylidine] : 17.9

Consider the record given below.
Output reversed-phase LC retention time of Cn1cnc2c1c(=O)[nH]c(=O)n2C [Theobromine]
5.81

====

# test-method-notes: collision cross section (TIMS, N2 drift gas) of the primary ion; higher = larger gas-phase ion size
# measurement-parameters: ionization mode: ESI+; ion species: [M+H]+
Listed next: entries and their corresponding collision cross section.
The reply should be a number in Å², with the unit left off.

CN(C)S(=O)(=O)c1ccc(N)cc1 [4-Amino-N,N-dimethylbenzenesulfonamide] : 138.47
CCCCN(CCCC)CCCC : 148.84
CO/N=C(/C(=O)O)c1ccccc1CO/N=C(\C(=O)O)c1cccc(C(F)(F)F)c1 : 195.58
O=C(Nc1ccc(F)cc1)c1cccc(Oc2cccc(C(F)(F)F)c2)n1 : 189.81
CCCCC(CC)CNCC(CC)CCCC (configuration not stated) : 171.64

Output collision cross section of "O=C1NC(=O)C(c2ccccc2)(c2ccccc2)N1"
162.42

Output collision cross section of O=P(OCC(Br)CBr)(OCC(Br)CBr)OCC(Br)CBr (configuration not stated) [Tris(2,3-dibromopropyl)phosphate]
195.61

Output collision cross section of "O=[N+]([O-])/N=C1\NCCN1Cc1ccc(Cl)nc1"
155.98

====

# test-method-notes: collision cross section (TIMS, N2 drift gas) of the primary ion; higher = larger gas-phase ion size
# measurement-parameters: ionization mode: ESI-; ion species: [M-H]-
endpoint: collision cross section (Å²)
The reply should be a number in Å², with the unit left off.

Use these answered entries as a reference point.
CCCc1nc(C)c2c(=O)nc(-c3cc(S(=O)(=O)N4CCN(CC)CC4)ccc3OCC)[nH]n12 [Vardenafil] : 219.66
C[C@H]1C[C@H]2[C@@H]3CCC4=CC(=O)C=C[C@]4(C)[C@@]3(F)[C@@H](O)C[C@]2(C)[C@@]1(O)C(=O)CCl [Clobetasol] : 194.82
CC(=O)[C@@]1(O)CC[C@H]2[C@@H]3C=C(Cl)C4=CC(=O)[C@@H]5C[C@@H]5[C@]4(C)[C@H]3CC[C@@]21C [Cyproterone] : 190.87

Output collision cross section of COc1cc(O)c(C(=O)c2ccccc2)cc1S(=O)(=O)O [Benzophenone-4]
168.24

Output collision cross section of N#Cc1nn(-c2c(Cl)cc(C(F)(F)F)cc2Cl)c(N)c1S(=O)C(F)(F)F (centres undefined) [Fipronil]
177.2

Output collision cross section of CON(C)C(=O)Nc1ccc(Cl)c(Cl)c1 [Linuron]
149.38

Output collision cross section of Oc1c(Br)cc(Cl)cc1Cc1cc(Cl)cc(Br)c1O [Bromochlorophen]
171.71

Output collision cross section of CNC(=O)c1cc(Cl)cc(C)c1NC(=O)c1cc(Br)nn1-c1ncccc1Cl [Chlorantraniliprole]
197.51

Output collision cross section of CCC(=O)O[C@]1(C(=O)SCF)[C@H](C)C[C@H]2[C@@H]3C[C@H](F)C4=CC(=O)C=C[C@]4(C)[C@@]3(F)[C@@H](O)C[C@@]21C [Fluticasone propionate]
209.59

Output collision cross section of N[C@@H](Cc1cc(I)c(Oc2ccc(O)c(I)c2)c(I)c1)C(=O)O [3,3',5-Triiodo-L-thyronine]
199.54

Output collision cross section of NC(CC(=O)N1CCn2c(nnc2C(F)(F)F)C1)Cc1cc(F)c(F)cc1F (centres undefined) [Sitagliptin]
182.72

Output collision cross section of CC(C)c1ccc2c(c1)CC[C@H]1[C@](C)(C(=O)O)CCC[C@]21C [Dehydroabietic acid]
184.43

Output collision cross section of Oc1ccc(Cl)cc1Cc1ccccc1 [Chlorophene]
147.97

Output collision cross section of CC(C)(Oc1ccc(CCNC(=O)c2ccc(Cl)cc2)cc1)C(=O)O [Bezafibrate]
181.16

Output collision cross section of Cc1cc(C(F)(C(F)(F)F)C(F)(F)F)ccc1NC(=O)c1cccc(I)c1C(=O)NC(C)(C)CS(C)(=O)=O [Flubendiamide]
222.96

Output collision cross section of CCCCNS(=O)(=O)c1ccccc1 [N-Butylbenzenesulfonamide]
148.3

Output collision cross section of CCCCCCCCCCOS(=O)(=O)O [Decylsulfate]
159.61

Output collision cross section of c1ccc2c(c1)[nH]c1ncccc12 [Carboline]
129.53

Output collision cross section of O=C(CCc1ccc(O)cc1)c1c(O)cc(O)cc1O [Phloretin]
163.45

Output collision cross section of CCCCC(=O)O[C@]1(C(=O)CO)[C@@H](C)C[C@H]2[C@@H]3CCC4=CC(=O)C=C[C@]4(C)[C@@]3(F)[C@@H](O)C[C@@]21C [Betamethasone-17-valerate]
216.5

Output collision cross section of O=C(O)C(F)(F)C(F)(F)C(F)(F)C(F)(F)C(F)(F)C(F)(F)C(F)(F)C(F)(F)C(F)(F)C(F)(F)F [Perfluoroundecanoic acid]
182.71

Output collision cross section of O=P(O)(O)C(F)(F)C(F)(F)C(F)(F)C(F)(F)C(F)(F)C(F)(F)F [Perfluorohexyl phosphonic acid]
152.3

Output collision cross section of CCC(=O)[C@@]1(C)[C@H](C)C[C@H]2[C@@H]3CCC4=CC(=O)C=C[C@]4(C)[C@H]3[C@@H](O)C[C@@]21C [Rimexolone]
191.62

Output collision cross section of Oc1c(Br)cc(Br)cc1Br [2,4,6-Tribromophenol]
133.11

FYI, the data here is from the supplement of paper PMC12613149.
